Biological target: Trypanothione reductase (Leishmania infantum)
Assay: Inhibition of dimerization of HIS/FLAG tagged Leishmania infantum trypanothione reductase assessed as dimer levels at 9.375 uM incubated for 16 hrs by ELISA
Parameters: scale not given: the % may be the effect or the level left
Non-standard residues stand in square brackets, D forms with d. Residues, ends and D or L forms follow the SMILES beside them. R5 = C=CCCC[C@@](C)(N)C(=O)O
RECORDED_ENDPOINT: Activity (%)

INSERT INTO measurements (molecule, value_reported) VALUES
  ('CCCC[C@H](NC(=O)[C@H](CC(C)C)NC(=O)[C@H](CCCC)NC(=O)[C@H](CO)NC(=O)[C@@H](NC(=O)CNC(=O)[C@]1(C)CCCC=CCCC[C@@](C)(NC(=O)[C@H](CC(C)C)NC(=O)[C@@H]2CCCN2C(C)=O)C(=O)N[C@@H]([C@@H](C)CC)C(=O)N[C@@H](CCC(N)=O)C(=O)N[C@@H](CO)C(=O)N1)[C@@H](C)CC)C(N)=O (stereo in doubt; 2a)', 114),
  ('C=CCCC[C@@](C)(NC(=O)[C@@H](NC(=O)[C@H](CO)NC(=O)[C@H](CCC(N)=O)NC(=O)[C@@](C)(CCCC=C)NC(=O)[C@@H](NC(=O)[C@H](CCCCN)NC(=O)[C@@H]1CCCN1C(C)=O)[C@@H](C)CC)C(C)C)C(=O)N[C@H](C(=O)N[C@@H](CO)C(=O)NCC(=O)N[C@@H](CCCCN)C(=O)NCC(N)=O)[C@@H](C)CC (Ac-PKI[R5]QSV[R5]ISGKG-NH2)', 125),
  ('CCCC[C@@H](NC(=O)[C@H](CC(C)C)NC(=O)[C@@H](CCCC)NC(=O)[C@H](CO)NC(=O)[C@@H](NC(=O)CNC(=O)[C@@H](NC(=O)[C@H](CO)NC(=O)[C@H](CCC(N)=O)NC(=O)[C@@H](NC(=O)[C@@H](NC(=O)[C@H](CC(C)C)NC(=O)[C@@H]1CCCN1C(C)=O)[C@@H](C)CC)[C@@H](C)CC)C(C)C)[C@@H](C)CC)C(N)=O', 59);
